TARGET_OF_ASSAY: Recombinant human his-tagged IGF 1R extracellular domain protein (human) (UniProt P08069)
PROTOCOL_SUMMARY: SPR, captured IgG, IGF-1R ECD-his analyte, dissociation pH 6
In this section we review reported log10 of Kd values for a set of binders.
ASSAY_METRIC: log10 of Kd (log10 of the value in nM)

{"columns": ["BINDER", "log10 of Kd"],
 "data": [
  ["VRDN-02564 (antibody, V domains shown) VH: EVQLVQSGGGLVKPGGSLRLSCAASGFTFSSFAMHWVRQAPGKGLEWISVIHTRGATYYADSVKGRFTISRDNAKNSLYLQMNSLRAEDTAVYYCARLGNFYYGHDVWGQGTTVTVSS VL: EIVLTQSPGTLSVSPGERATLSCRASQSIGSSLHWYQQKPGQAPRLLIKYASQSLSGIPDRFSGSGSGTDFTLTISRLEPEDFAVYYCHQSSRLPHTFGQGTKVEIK", 0.17],
  ["VRDN-02506 (antibody, V domains shown) VH: EVQLVQSGGGLVKPGGSLRLSCAASGFTFSHFAMHWVRQAPGKGLEWISVIDTRGATYYADSVKGRFTISRDNAKNSLYLQMNSLRAEDTAVYYCARLGNFYYGMDVWGQGTTVTVSS VL: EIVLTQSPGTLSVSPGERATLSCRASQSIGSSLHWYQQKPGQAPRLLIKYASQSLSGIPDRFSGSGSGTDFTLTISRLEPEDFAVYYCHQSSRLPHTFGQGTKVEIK", -1.57],
  ["VRDN-02509 (antibody, V domains shown) VH: EVQLVQSGGGLVKPGGSLRLSCAASGFTFSSFAHHWVRQAPGKGLEWISVIDTRGATYYADSVKGRFTISRDNAKNSLYLQMNSLRAEDTAVYYCARLGNFYYGMDVWGQGTTVTVSS VL: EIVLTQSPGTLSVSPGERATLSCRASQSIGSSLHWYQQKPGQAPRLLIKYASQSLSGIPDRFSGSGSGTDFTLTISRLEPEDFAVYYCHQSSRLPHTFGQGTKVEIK", -1.55],
  ["VRDN-02536 (antibody, V domains shown) VH: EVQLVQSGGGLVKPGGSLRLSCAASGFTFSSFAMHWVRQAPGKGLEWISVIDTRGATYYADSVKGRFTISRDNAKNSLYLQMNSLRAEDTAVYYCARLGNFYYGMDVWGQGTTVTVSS VL: EIVLTQSPGTLSVSPGERATLSCRASQSIGSHLHWYQQKPGQAPRLLIKYASQSLSGIPDRFSGSGSGTDFTLTISRLEPEDFAVYYCHQSSRLPHTFGQGTKVEIK", -1.64],
  ["VRDN-02538 (antibody, V domains shown) VH: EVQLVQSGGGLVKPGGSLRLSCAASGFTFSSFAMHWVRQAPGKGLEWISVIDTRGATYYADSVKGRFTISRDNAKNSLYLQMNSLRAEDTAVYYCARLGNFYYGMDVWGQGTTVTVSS VL: EIVLTQSPGTLSVSPGERATLSCRASQSIGSSLHWYQQKPGQAPRLLIHYASQSLSGIPDRFSGSGSGTDFTLTISRLEPEDFAVYYCHQSSRLPHTFGQGTKVEIK", -1.33]
]}

Cited source: patent US20240343814A1
